Each record here notes measured fold less potent than PROG (calcium influx).
# system: CatSper (Homo sapiens, UniProt Q7RTX7+Q86XQ3+Q8NEC5+Q96P56)
# assay_summary: Human sperm calcium influx assay, activation
# Type: cell-based
# condition_summary: relative to PROG
property: fold less potent than PROG (calcium influx) (fold)

query_smiles: CC(=O)[C@H]1CC[C@H]2[C@@H]3CCC4=CC(=O)C(C)(C)C[C@]4(C)[C@H]3CC[C@]12C
system: CatSper (Homo sapiens, UniProt Q7RTX7+Q86XQ3+Q8NEC5+Q96P56)
censoring_qualifier: =
numeric_value: 135
//
query_smiles: CC(=O)[C@H]1CC[C@H]2[C@@H]3C[C@H](C)C4=CC(=O)CC[C@]4(C)[C@H]3CC[C@]12C
system: CatSper (Homo sapiens, UniProt Q7RTX7+Q86XQ3+Q8NEC5+Q96P56)
censoring_qualifier: =
numeric_value: 190
//
query_smiles: C[C@]12CC[C@@H](O)C[C@H]1CC[C@@H]1[C@@H]2CC[C@]2(C)[C@@H](C(=O)CO)CC[C@@H]12
system: CatSper (Homo sapiens, UniProt Q7RTX7+Q86XQ3+Q8NEC5+Q96P56)
censoring_qualifier: ≥
numeric_value: 240
